System: K12877-001-R-J1-PDC complex spheroid viability
Experiment: Anticancer human tumor K12877-001-R-J1-PDC patient-derived lung adenocarcinoma cell line growth inhibition [RAS]
Conditions: second compound 0.316 µM; first compound 0.316 µM; stronger effect = lower value
Excerpt: RAS pathway inhibitors in Combinations in Complex Spheroids A high-throughput screen of multi-cell type tumor spheroids was designed to identify active combinations of RAS pathway inhibitors and targeted small molecules. Complex spheroids include a stromal component modeled by human endothelial cells (HUVEC) and fibroblasts modeled by human mesenchymal stem cells (MSCs). […] Compounds. […] If the clinical Cmax for an agent had not been determined, the highest concentration tested was 10 microM. […]
observable: viability, T/C (%)

[
  {
    "compound": "C[C@@H](NC(=O)c1ncnc(N)c1Cl)c1ncc(C(=O)Nc2cc(C(F)(F)F)c(Cl)cn2)s1 + C=CC(=O)N1CCN(c2nc(OCC3CCCN3C)nc3c(F)c(-c4nc(N)cc(C)c4C(F)(F)F)c(Cl)cc23)C(C)C1",
    "assayTarget": "K12877-001-R-J1-PDC complex spheroid viability",
    "observed": 77.1
  },
  {
    "compound": "C[C@@H](NC(=O)c1ncnc(N)c1Cl)c1ncc(C(=O)Nc2cc(C(F)(F)F)c(Cl)cn2)s1 + C#Cc1c(F)ccc2cc(O)cc(-c3ncc4c(N5CC6CCC(C5)N6)nc(OCC56CCCN5CC(F)C6)nc4c3F)c12",
    "assayTarget": "K12877-001-R-J1-PDC complex spheroid viability",
    "observed": 97.4
  },
  {
    "compound": "Nc1ccn(C2OC(CO)C(O)C2(F)F)c(=O)n1 (stereo not drawn) + C=CC(=O)N1CCN(c2nc(OCC3CCCN3C)nc3c(F)c(-c4nc(N)cc(C)c4C(F)(F)F)c(Cl)cc23)C(C)C1",
    "assayTarget": "K12877-001-R-J1-PDC complex spheroid viability",
    "observed": 4.16
  }
]

---

// reported IC50 for each item listed
System: K12877-001-R-J1-PDC complex spheroid viability
Test: Anticancer human tumor K12877-001-R-J1-PDC cell line growth inhibition [RAS];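 also: spheroids exposed to agents for one week before readout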
Conditions: curve of first compound; second compound 0.0949 µM

[
  {
    "compound": "Cc1nc(N2CCC3(CC2)COC(C)C3N)c(CO)nc1Sc1ccnc(N)c1Cl (stereo not given) + CCn1c(-c2cccnc2C(C)OC)c2c3cc(ccc31)N1CCOC(CC(NC(=O)C(C(C)C)N(C)C(=O)C3(F)CCN(C(=O)C#CC(C)(C)N(C)C)CC3)C(=O)N3CCCC(N3)C(=O)OCC(C)(C)C2)C1",
    "assayTarget": "K12877-001-R-J1-PDC complex spheroid viability",
    "IC50": "1200 nM"
  },
  {
    "compound": "CC(Nc1ccc2c(c1)OCCn1cc(N3C(=O)OCC3C(F)F)nc1-2)C(N)=O (stereo not given) + CCn1c(-c2cccnc2C(C)OC)c2c3cc(ccc31)N1CCOC(CC(NC(=O)C(C(C)C)N(C)C(=O)C3(F)CCN(C(=O)C#CC(C)(C)N(C)C)CC3)C(=O)N3CCCC(N3)C(=O)OCC(C)(C)C2)C1",
    "assayTarget": "K12877-001-R-J1-PDC complex spheroid viability",
    "IC50": "172 nM"
  },
  {
    "compound": "CC(=O)OC12COC1CC(O)C1(C)C(=O)C(O)C3=C(C)C(OC(=O)C(O)C(NC(=O)OC(C)(C)C)c4ccccc4)CC(O)(C(OC(=O)c4ccccc4)C21)C3(C)C (stereo not given) + CCn1c(-c2cc(N3CCN(C)CC3)cnc2C(C)OC)c2c3cc(ccc31)-c1csc(n1)CC(NC(=O)C1CC1C)C(=O)N1CCCC(N1)C(=O)OCC(C)(C)C2",
    "assayTarget": "K12877-001-R-J1-PDC complex spheroid viability",
    "IC50": "< 31.6 nM"
  },
  {
    "compound": "C[C@@H](NC(=O)c1ncnc(N)c1Cl)c1ncc(C(=O)Nc2cc(C(F)(F)F)c(Cl)cn2)s1 + CCn1c(-c2cccnc2C(C)OC)c2c3cc(ccc31)N1CCOC(CC(NC(=O)C(C(C)C)N(C)C(=O)C3(F)CCN(C(=O)C#CC(C)(C)N(C)C)CC3)C(=O)N3CCCC(N3)C(=O)OCC(C)(C)C2)C1",
    "assayTarget": "K12877-001-R-J1-PDC complex spheroid viability",
    "IC50": "> 10000 nM"
  },
  {
    "compound": "CC1(C)CCC(Nc2ncc(C(F)(F)F)c(-c3c[nH]c4c(P(C)(C)=O)c(C#N)ccc34)n2)CN1 (stereo not given) + CCn1c(-c2cc(N3CCN(C)CC3)cnc2C(C)OC)c2c3cc(ccc31)-c1csc(n1)CC(NC(=O)C1CC1C)C(=O)N1CCCC(N1)C(=O)OCC(C)(C)C2",
    "assayTarget": "K12877-001-R-J1-PDC complex spheroid viability",
    "IC50": "30.8 nM"
  },
  {
    "compound": "CC1(O)CCCC1n1c(=O)c(C(F)F)cc2cnc(NC3CCN(S(C)(=O)=O)CC3)nc21 (stereo not given) + CCn1c(-c2cc(N3CCN(C)CC3)cnc2C(C)OC)c2c3cc(ccc31)-c1csc(n1)CC(NC(=O)C1CC1C)C(=O)N1CCCC(N1)C(=O)OCC(C)(C)C2",
    "assayTarget": "K12877-001-R-J1-PDC complex spheroid viability",
    "IC50": "545 nM"
  },
  {
    "compound": "CC(C)NCC(C(=O)N1CCN(c2ncnc3c2C(C)CC3O)CC1)c1ccc(Cl)cc1 (stereo not given) + CCn1c(-c2cccnc2C(C)OC)c2c3cc(ccc31)N1CCOC(CC(NC(=O)C(C(C)C)N(C)C(=O)C3(F)CCN(C(=O)C#CC(C)(C)N(C)C)CC3)C(=O)N3CCCC(N3)C(=O)OCC(C)(C)C2)C1",
    "assayTarget": "K12877-001-R-J1-PDC complex spheroid viability",
    "IC50": "488 nM"
  },
  {
    "compound": "Cc1nc(N2CCC3(CC2)COC(C)C3N)c(CO)nc1Sc1ccnc(N)c1Cl (stereo not given) + CCn1c(-c2cc(N3CCN(C)CC3)cnc2C(C)OC)c2c3cc(ccc31)-c1csc(n1)CC(NC(=O)C1CC1C)C(=O)N1CCCC(N1)C(=O)OCC(C)(C)C2",
    "assayTarget": "K12877-001-R-J1-PDC complex spheroid viability",
    "IC50": "> 10000 nM"
  },
  {
    "compound": "NC1c2ccccc2OC12CCN(c1cnc3c(N4CCCc5ncccc54)n[nH]c3n1)CC2 (stereo not given) + CCn1c(-c2cc(N3CCN(C)CC3)cnc2C(C)OC)c2c3cc(ccc31)-c1csc(n1)CC(NC(=O)C1CC1C)C(=O)N1CCCC(N1)C(=O)OCC(C)(C)C2",
    "assayTarget": "K12877-001-R-J1-PDC complex spheroid viability",
    "IC50": "1330 nM"
  },
  {
    "compound": "CCC(CC)c1cc(NC2CCC(N)C2)n2nccc2n1 (stereo not given) + CCn1c(-c2cccnc2C(C)OC)c2c3cc(ccc31)N1CCOC(CC(NC(=O)C(C(C)C)N(C)C(=O)C3(F)CCN(C(=O)C#CC(C)(C)N(C)C)CC3)C(=O)N3CCCC(N3)C(=O)OCC(C)(C)C2)C1",
    "assayTarget": "K12877-001-R-J1-PDC complex spheroid viability",
    "IC50": "808 nM"
  },
  {
    "compound": "CC1(O)CCCC1n1c(=O)c(C(F)F)cc2cnc(NC3CCN(S(C)(=O)=O)CC3)nc21 (stereo not given) + CCn1c(-c2cccnc2C(C)OC)c2c3cc(ccc31)N1CCOC(CC(NC(=O)C(C(C)C)N(C)C(=O)C3(F)CCN(C(=O)C#CC(C)(C)N(C)C)CC3)C(=O)N3CCCC(N3)C(=O)OCC(C)(C)C2)C1",
    "assayTarget": "K12877-001-R-J1-PDC complex spheroid viability",
    "IC50": "80.8 nM"
  },
  {
    "compound": "C=CC(=O)N1CCN(c2nc(OCC3CCCN3C)nc3c(F)c(-c4nc(N)cc(C)c4C(F)(F)F)c(Cl)cc23)C(C)C1 (stereo not given) + CCn1c(-c2cccnc2C(C)OC)c2c3cc(ccc31)N1CCOC(CC(NC(=O)C(C(C)C)N(C)C(=O)C3(F)CCN(C(=O)C#CC(C)(C)N(C)C)CC3)C(=O)N3CCCC(N3)C(=O)OCC(C)(C)C2)C1",
    "assayTarget": "K12877-001-R-J1-PDC complex spheroid viability",
    "IC50": "> 1000 nM"
  },
  {
    "compound": "CC1(C)CCC(Nc2ncc(C(F)(F)F)c(-c3c[nH]c4c(P(C)(C)=O)c(C#N)ccc34)n2)CN1 (stereo not given) + CCn1c(-c2cccnc2C(C)OC)c2c3cc(ccc31)N1CCOC(CC(NC(=O)C(C(C)C)N(C)C(=O)C3(F)CCN(C(=O)C#CC(C)(C)N(C)C)CC3)C(=O)N3CCCC(N3)C(=O)OCC(C)(C)C2)C1",
    "assayTarget": "K12877-001-R-J1-PDC complex spheroid viability",
    "IC50": "13.8 nM"
  },
  {
    "compound": "O=C(c1ccc(F)c(F)c1Nc1ccc(I)cc1F)N1CC(O)([C@@H]2CCCCN2)C1 + CCn1c(-c2cc(N3CCN(C)CC3)cnc2C(C)OC)c2c3cc(ccc31)-c1csc(n1)CC(NC(=O)C1CC1C)C(=O)N1CCCC(N1)C(=O)OCC(C)(C)C2",
    "assayTarget": "K12877-001-R-J1-PDC complex spheroid viability",
    "IC50": "98.8 nM"
  },
  {
    "compound": "Nc1ccn(C2OC(CO)C(O)C2(F)F)c(=O)n1 (stereo not given) + CCn1c(-c2cccnc2C(C)OC)c2c3cc(ccc31)N1CCOC(CC(NC(=O)C(C(C)C)N(C)C(=O)C3(F)CCN(C(=O)C#CC(C)(C)N(C)C)CC3)C(=O)N3CCCC(N3)C(=O)OCC(C)(C)C2)C1",
    "assayTarget": "K12877-001-R-J1-PDC complex spheroid viability",
    "IC50": "10.5 nM"
  }
]
